molecular target: D(2) dopamine receptor (Homo sapiens) (UniProt P14416); assay: Dopamine D2 receptor (DRD2) small molecule antagonists, cell-based qHTS assay (AID 1963595); conditions: HEK293-DRD2 cAMP HTRF antagonist mode; series mostly up to 92.4 µM; also: potency is read from the fitted curve at half-maximal effect
Sequence (P14416 whole entry, looked up): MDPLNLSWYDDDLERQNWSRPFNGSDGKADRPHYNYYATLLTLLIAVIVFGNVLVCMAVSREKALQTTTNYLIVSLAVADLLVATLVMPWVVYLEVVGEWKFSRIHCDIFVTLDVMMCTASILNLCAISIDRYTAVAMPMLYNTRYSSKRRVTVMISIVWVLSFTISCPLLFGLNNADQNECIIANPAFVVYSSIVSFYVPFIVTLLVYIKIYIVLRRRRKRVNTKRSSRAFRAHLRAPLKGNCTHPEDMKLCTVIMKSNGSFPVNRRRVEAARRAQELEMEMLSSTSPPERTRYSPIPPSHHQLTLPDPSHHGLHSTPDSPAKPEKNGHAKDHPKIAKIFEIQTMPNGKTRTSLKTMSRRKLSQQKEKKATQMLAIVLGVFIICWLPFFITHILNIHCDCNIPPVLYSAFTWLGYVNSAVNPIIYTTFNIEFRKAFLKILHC
Inconclusive results are not listed. Calls of active or inactive are those of the source. Calls follow the shape of the dose curve; as a rule, active = well fitted inhibition curve with a large enough effect in the signal ratio in the repeat runs, with a control signal flat; inconclusive = weak or mixed curves, or effect the other way; inactive = flat fitted curve, though single readings scatter; the % refers to the signal ratio.
reportedProperty: Potency

Provide only the value of recorded Potency for O=Nc1ccc(Nc2ccccc2)cc1 54.5 µM (active)

Give recorded Potency. Clc1ccccc1C(c1ccccc1)(c1ccccc1)n1ccnc1 61.1 µM (active)

State its Potency: Nc1ncnc2c1ncn2[C@@H]1O[C@H](COP(=O)(O)O)[C@@H](O)[C@H]1O 0.944 µM (active)

Given the compound Cc1cc(OCCOCC[N+](C)(C)Cc2ccccc2)ccc1C(C)(C)CC(C)(C)C , write its reported Potency. 38.3 µM (active)

----------
Experiment: Nuclear factor erythroid 2-related factor 2/antioxidant responsive element (Nrf2/ARE) small molecule agonists: qHTS cell viability counter screen in human keratinocytes (AID 1919968); also: nearly all actives have a fitted effect of over 55% in size
Conditions: KeratinoSens HaCaT ARE cells viability, CellTiter-Fluor, 24 h; series mostly up to 92.4 µM
Source text: U.S. Tox21 Program National Center for Advancing Translational Sciences [NCATS] Division of Preclinical Innovation [DPI] U.S. Environmental Protection Agency [EPA] National Institutes of Environmental Health Sciences [NIEHS] National Toxicology Program [NTP] U.S. Food and Drug Administration [FDA] […] The activation of the report gene under culture conditions can be detected by ONE-Glo Luciferase Assay System (Promega, Madison, WI). […]
Inconclusive results are not listed. The source made the active and inactive calls. Calls come from the whole dose curve; as a rule, active = well fitted cell-killing curve with a large enough effect in the repeat runs; inconclusive = weak or mixed curves, or effect the other way; inactive = flat fitted curve, though single readings scatter.
Mark one answer only. Choices: 1 (yes) for active, 0 (no) for inactive

Test call for this molecule, please: CC(C)(C)CC(C)(C)c1ccc(O)c(-n2nc3ccccc3n2)c1 1 (yes)

Called result for C/C=C/c1ccc(OC)c(OC)c1 0 (no)

Query: recorded result category for CC(C)=O in this test 0 (no)

Could you kindly confirm the outcome this assay logged for CC(C)CC(=O)O ? 0 (no)

Hi, do you know how Oc1ccc(Cl)cc1Sc1cc(Cl)ccc1O came out in this test? 1 (yes)

Status in this test for Cc1ccc(C(C)c2ccc(C)c(C)c2)cc1C ? 0 (no)

// return assay outcome for CCCCN=C(N)N=C(N)N 0 (no)

Look up the recorded call for Cc1cn([C@H]2C[C@H](F)[C@@H](CO)O2)c(=O)[nH]c1=O in this test. 0 (no)

Record lookup: outcome of this test for CC1COc2ccccc2N1C(=O)C(Cl)Cl (stereo not given) ? 0 (no)

Tell me the assay call for CC(C)CC(C)O (stereo not given) please. 0 (no)

Given CC(c1cc2ccccc2s1)N(O)C(N)=O (stereo not given) , state the outcome it received in this test. 0 (no)

Test call for this molecule, please: O=C(O)CCC(=O)Nc1ccc(S(=O)(=O)Nc2nccs2)cc1 0 (no)

Returns: the outcome recorded for Cc1cc(C)c(C(=O)O)c(C)c1 in this assay. 0 (no)

Query: recorded result category for CCCCCOC(C)=O in this test 0 (no)

How was COc1ccc2nc(N)sc2c1 classified in this test? 0 (no)

----------
assay: p53 small molecule agonists, cell-based qHTS assay with rat liver microsomes (AID 1963578); conditions: HCT-116 p53RE-bla, beta-lactamase ratio, 16 h; series mostly up to 66 µM; also: % is scaled to controls: 0 for no effect and ±100 for the full control effect
Inconclusive results are not listed. Activity calls are given as the source filed them. Calls come from the whole dose curve.
reportedProperty: activation

Would you please look over these solved cases?
>  <compound>
O=C(Nc1ccc([N+](=O)[O-])cc1)Nc1ccc([N+](=O)[O-])cc1 (tested in a mixture with another compound)

>  <activation>
inactive

$$$$
>  <compound>
CCCC(O)C(O)CO (configuration not stated)

>  <activation>
inactive

$$$$
>  <compound>
CCCCCCCCOCCC#N

>  <activation>
inactive

$$$$
>  <compound>
NC(=S)Nc1cccc2ccccc12

>  <activation>
0.459% [at 5.99 µM] (inactive)

$$$$
>  <compound>
CN(C(=O)c1c(O)c2ccccc2n(C)c1=O)c1ccccc1

>  <activation>
inactive

$$$$

Retrieve activation measured for Cc1ccc(S(=O)(=O)NC2CCCCC2)cc1 and print it. inactive

Give the reported value of activation for this record: C=C(C)C(=O)OCCCCCCCCCCCCC inactive

Fill in activation for record O=C(O)[C@@H]1[C@H]2C[C@H]3c4[nH]c5ccccc5c4CCN3C[C@@H]2CC[C@@H]1O inactive

Provide one value: measured activation of CCCCCCCCC(=O)OCC inactive

Identify measured activation associated with Oc1cc(O)c2c(c1)O[C@H](c1ccc(O)c(O)c1)[C@H](O)C2 inactive

Provide activation value for the following compound: Cc1ccccc1C(=O)N1CC/C(=N\OS(=O)(=O)O)c2ccc(Cl)cc21 inactive

Using known records, supply activation for Cc1cc(N)no1 inactive

Note activation for the compound shown: Cc1cnccn1 inactive

Retrieve activation measured for CC1=C(C=O)C(C)(C)CC=C1 and print it. inactive

For the compound CCCCC(=O)N(C)C , give its measured activation value. inactive

Input CC(C)CCOCCC(C)C , output reported activation. inactive

----------
Molecular target: KiSS-1 receptor (Homo sapiens)
Assay: Human kisspeptin (KISS1R) small molecule agonists, calcium flux assay in KISS1R-HEK293 cells (AID 1920064); also: % is scaled to controls: 0 for no effect and ±100 for the full control effect
Conditions: KISS1R-HEK293, calcium flux fluorescence, agonist; series mostly up to 76.8 µM
Excerpt: National Center for Advancing Translational Sciences [NCATS] Division of Preclinical Innovation [DPI] U.S. Environmental Protection Agency [EPA] National Institutes of Environmental Health Sciences [NIEHS] National Toxicology Program [NTP] U.S. Food and Drug Administration [FDA] […] KISS1R-HEK293 cells developed by Codex Corp contain human KISS1R gene, which was stably integrated into HEK 293 cells. The compound activation can be detected by fluorescence intensity via calcium flux assay. […]
The source made the active and inactive calls. The call rests on the fitted dose curve; in most records, active means well fitted activation curve with a large enough effect in the repeat runs; inconclusive means weak or mixed curves; inactive means flat fitted curve, though single readings scatter.
reportedProperty: activation

>  <compound>
CC(COCCO)OCCO (stereo not drawn)

>  <reading>
inactive

$$$$
>  <compound>
Cc1ccc(S(=O)(=O)NC2CCCCC2)cc1

>  <reading>
inactive

$$$$
>  <compound>
Nc1ccc([N+](=O)[O-])c(C(F)(F)F)c1

>  <reading>
inactive

$$$$
>  <compound>
Cc1cc(C)c(C(=O)O)c(C)c1

>  <reading>
inactive

$$$$
>  <compound>
CCCCNc1ccccc1

>  <reading>
inactive

$$$$

Note activation for the compound shown: CC(C)(C)C(=O)C(Oc1ccc(Cl)cc1)n1ccnc1 (stereo not drawn) inactive

Provide measured activation value, entry: CC/C=C\CCOC(=O)CC inactive

Please indicate activation recorded for C=C(C)[C@H]1CC=C(C)C(=O)C1 inactive

----------
molecular target: D(2) dopamine receptor (Homo sapiens) (UniProt P14416); assay: Dopamine D2 receptor (DRD2) small molecule antagonists, cell-based qHTS assay (AID 1963595); conditions: HEK293-DRD2 cAMP HTRF antagonist mode; series mostly up to 92.4 µM; as to activity change, negative = inhibition: % is scaled to controls: 0 for no effect and ±100 for the full control effect
Records with an inconclusive call do not appear. Calls of active or inactive are those of the source. Calls come from the whole dose curve; as a rule, active = well fitted inhibition curve with a large enough effect in the signal ratio in the repeat runs, with a control signal flat; inconclusive = weak or mixed curves, or effect the other way; inactive = flat fitted curve, though single readings scatter; the % refers to the signal ratio.
reportedProperty: activity change, negative = inhibition

>  <molecule>
CC(=O)CC(C)=O

>  <target>
D(2) dopamine receptor (Homo sapiens) (UniProt P14416)

>  <activity change, negative = inhibition>
inactive

$$$$
>  <molecule>
CCn1cc(C(=O)O)c(=O)c2cnc(N3CCNCC3)nc21

>  <target>
D(2) dopamine receptor (Homo sapiens) (UniProt P14416)

>  <activity change, negative = inhibition>
inactive

$$$$
>  <molecule>
c1ccc(CNc2ncnc3c2ncn3C2CCCCO2)cc1 (stereo not drawn)

>  <target>
D(2) dopamine receptor (Homo sapiens) (UniProt P14416)

>  <activity change, negative = inhibition>
inactive

$$$$
>  <molecule>
O=P(O)(OCc1ccccc1)OCc1ccccc1

>  <target>
D(2) dopamine receptor (Homo sapiens) (UniProt P14416)

>  <activity change, negative = inhibition>
inactive

$$$$
>  <molecule>
O=C[C@H](O)[C@H](O)[C@H](O)CO

>  <target>
D(2) dopamine receptor (Homo sapiens) (UniProt P14416)

>  <activity change, negative = inhibition>
inactive

$$$$

Quickly give me recorded activity change, negative = inhibition for CCCCCCCCCOCC1CO1 (stereo not drawn) inactive

Fill in reported activity change, negative = inhibition for this entry: CCOC(=O)C(C)C(C)=O (stereo not drawn) inactive

For the molecule FC(F)(F)c1cccc(Cl)c1 , report activity change, negative = inhibition. inactive

Input Cc1ccc(C(C)(C)O)cc1 , output reported activity change, negative = inhibition. inactive

Provide one value: measured activity change, negative = inhibition of CCc1ccc(C=O)cc1 inactive

Consider the molecule c1ccc(CNCc2ccccc2)cc1 . State its measured activity change, negative = inhibition. inactive

Provide measured activity change, negative = inhibition value, entry: C[Si]1(C)O[Si](C)(C)O[Si](C)(C)O[Si](C)(C)O[Si](C)(C)O1 inactive

Identify activity change, negative = inhibition associated with the molecule O=C(O)[C@H](O)[C@@H](O)[C@H](O[C@@H]1O[C@H](CO)[C@H](O)[C@H](O)[C@H]1O)[C@H](O)CO inactive
